Entry source: patent US20180162928A1

The following binders are shown together with reported ELISA PD-L1 Fc (RSU) values.
- Assayed System: T1, recombinant biotinylated PD-L1 (rhPD-L1/Fc Chimera, R&D Systems 156-B7) (human, UniProt Q9NZQ7 19-238, biotinylated (sites not given))
- T1 construct: Bought Fc chimera; also called human PD-L1
- T1 sequence (Q9NZQ7 19-238, change not shown): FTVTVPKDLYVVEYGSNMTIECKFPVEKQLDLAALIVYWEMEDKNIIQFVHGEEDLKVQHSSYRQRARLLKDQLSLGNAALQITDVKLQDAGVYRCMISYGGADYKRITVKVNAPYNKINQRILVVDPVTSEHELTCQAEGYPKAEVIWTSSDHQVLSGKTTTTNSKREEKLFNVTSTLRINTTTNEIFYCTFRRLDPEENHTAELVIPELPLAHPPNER
- Test Summary: ELISA, lysate on plate-bound antigen

{"columns": ["Binder", "Unit Abbrev", "ELISA PD-L1 Fc (RSU)"],
 "data": [
  ["ISOP121FR5P1H8 (designed binder, not shown: small tags and cut ends, FN3 domain; E. coli lysate in the ELISA) LPAPKNLVVSRVTEDSARLSWTAPDAAFDSFVIYYSEQHFYGEAIVLTVPGSERSYDLTGLKPGTEYVVKIYGVKGGETSKPLSAIFTT", "RSU", 431000],
  ["ISOP194AR9P1E3 (designed binder, not shown: small tags and cut ends, FN3 domain; E. coli lysate in the ELISA) LPAPKNLVVSRVTEDSARLSWKRSDDEWFDSFLIQYQESEKVGEAIVLTVPGSERSYDLTGLKPGTEYTVSIYGVYQRAALWFSNPLSAIFTT", "RSU", "4.57e+06"],
  ["ISOP121FR5P1G11 (designed binder, not shown: small tags and cut ends, FN3 domain; E. coli lysate in the ELISA) LPAPKNLVVSRVTEDSARLSWTAPDAAFDSFSIWYLEIVAHGEAIVLTVPGSERSYDLTGLKPGTEYEVIIHGVKGCGPSGPLSAIFTT", "RSU", 18600],
  ["ISOP194AR9P1D11 (designed binder, not shown: small tags and cut ends, FN3 domain; E. coli lysate in the ELISA) LPAPKNLVVSRVTEDSGRLSWQHHISFFDSFLIQYQESEKVGEAIVLTVPGSERSYDLTGLKPGTEYTVSIYGVYNRKVNFYSNPLSAIFTT", "RSU", "1.04e+06"]
]}
